Tested on: PfHDP1 homeodomain (GST-tagged)
Protocol details: gcPBM binding intensity (ln(normalized median fluorescence intensity)); higher = stronger DNA binding
Whole data set: some 25,000 sequences, median “ln(normalized median fluorescence intensity)” near 6.7, cut for the highest 2% near 10. The sample as a whole holds a higher share of the highest values than the screen did.
Assign gcPBM binding intensity (ln) to each entry below.
Lab note: write the figure by itself, no unit.

The sequence listed as GCACTAAAAAAATAAACACACAGATTTATATAATAT [CACACA_site1381] has a reported gcPBM binding intensity (ln) of 6.5

# gcPBM binding intensity (ln) of TTTTGAAAAAATTTTTATAAAAGAATAAAATTATTA [XGTACX_negctrl_site570] = 6.06

Lab note: measured gcPBM binding intensity (ln) of TAAGTAATAGTTTGTGCACACTCAAGTATATCATAT [CACACA_site4035] was 11.1

gcPBM binding intensity (ln) recorded for this sequence, GATTTATACAAATATGTACACACTAATTATATATTA [CACACA_site8045] , is 6.9

# sequence AAAGAAATGAAATATACACACATACCTATATACATA [CACACA_site7817] ; its gcPBM binding intensity (ln) = 6.63

Measured gcPBM binding intensity (ln) of TTGTGTTATCCTTTTTTAGATCAACTATTTTTATTC [CACACA_negctrl_site145] : 6.32

Entry TTTATATTAATTGATGTGCACTGAAATATTTGTCCA [GTGCAC_site9655] — recorded gcPBM binding intensity (ln) = 9.08

For this sequence ( TGAATATTTATACATGCACACTAAAATAAAGAATCT [CACACA_site5351] ), measured gcPBM binding intensity (ln) is 8.07

In plain terms, TTTATTTTTGAAGTTGCACACACAAAAATAAAAAGT [CACACA_site8030] has a documented gcPBM binding intensity (ln) of 8.92

Record TTTATATTTAAAAGGATGCACTACAAATTCTAAATA . Reported gcPBM binding intensity (ln): 7.36

The reported gcPBM binding intensity (ln) of the sequence CATATAGTAATATATACACACACTTGTCTTGTAAAA [CACACA_site8238] was 6.54

sequence TGTTAATAAAGGTGTACACAAAATAAAAAAAATTAT [CACACA_site4288] , gcPBM binding intensity (ln) observed: 7.2

Reported gcPBM binding intensity (ln) of ATTTTATTTTTGTGCACACTGATAAATTGAAAAGAG [CACACA_site2948] : 11.1

Given item AAAAATAAAAGGTGTGCACACAAAAATATATATATA [CACACA_site8507] , the value recorded as its gcPBM binding intensity (ln) is 10.7

Reported gcPBM binding intensity (ln) of TAACCTAAAATAACTACACACACATAAAAAAAAAAA [CACACA_site8807] : 6.58

The value of gcPBM binding intensity (ln) measured for the sequence CCATTTTAAATATGCACACAGATGCACTAACACATT [CACACA_site5099] turned out to be 10.6

Per the records, this sequence ( AAAGGAAAAAAAAGCACACACAATATTACTTGAAAT [CACACA_site2588] ) has gcPBM binding intensity (ln) equal to 6.9

Lookup result for ATATATATATTAAAGGTGCACAAATAAATATATACA [GTGCAC_site9532] ; measured gcPBM binding intensity (ln): 9.88

Sure, the documented gcPBM binding intensity (ln) for TATATATATATATATATATATATGTATGTGCATTTA [TGCATGCA_negctrl_site53] is 11.2

Lab note: TTATTTTATTTTTGTGCACACTGATAAATTGAAAAG [CACACA_site2949] gave gcPBM binding intensity (ln) of 11.2

// gcPBM binding intensity (ln) lookup, sequence = ATATTCTAAATAAAGGGTACACAAAAATAATTAAAG [XGTACX_site5529] , result: 6.9

The origin of these recorded values is the supplement of paper PMC11417369.
